The values you see were collected from PubChem BioAssay (NCI).

test system: ACHN renal; assay: NCI tumour cell line growth inhibition, 48 h
Each record here notes measured TGI.

Recorded results for 6 compounds are shown here.
compound	TGI
CC(C)C(N)(C(=O)O)c1ccccc1 (stereo not given)	> 100 µM
COc1ccc(O)c2c1C(=O)CCCC2=O	> 100 µM
COCN1C(=O)[C@@H]2CCCN2C(=O)c2cc([N+](=O)[O-])ccc21	> 100 µM
COc1cc(CC2c3cc(OC)c(OC)cc3CCN2C)c(Oc2cc3c(cc2OC)-c2c(OC)c(OC)c(OC)c4c2C(C3)N(C)CC4)cc1OC (stereo not given)	30.9 µM
CC(=O)N1CC(F)(F)c2c(Sc3ncc(N4CCC5(CC4)COC[C@H]5N)nc3N)cccc21	51.4 µM
CC(=O)/C(C)=N/N/C(N)=N\S(=O)(=O)c1cc(C(=O)Nc2ccccc2)c(Cl)cc1SCc1ccccc1	> 100 µM

Consider `O=C1c2ccccc2C(=O)N1c1ccc(OCCN2CCCCC2)cc1` . Its measured TGI is > 100 µM

Consider `CC/C(Cl)=N\OC(=O)Nc1ccc(C#N)cc1` . Its measured TGI is 27.4 µM

Consider C[C@H]1[C@@H](OCC(CO[C@H]2O[C@@H]3O[C@@]4(C)CC[C@H]5[C@H](C)CC[C@@H]([C@H]2C)[C@@]35OO4)=NOCC(=O)O)OC2O[C@@]3(C)CC[C@H]4[C@H](C)CC[C@@H]1[C@@]24OO3 (stereo not given in full) . Its measured TGI is 14.5 µM

Consider `Cc1cc(C)nc(NS(=O)(=O)c2ccc(NC(=O)c3cccc4cc5ccccc5nc34)cc2)n1` . Its measured TGI is > 100 µM

Consider `CC(C)(C)/C(O)=C\c1nc2cc(C(F)(F)F)ccc2[nH]c1=O` . Its measured TGI is > 100 µM

Consider CC[C@H](C)[C@H](NC(=O)C12C3C4C1C1C2C3C41NC(C)=O)C(=O)N(C)[C@H](C[C@@H](OC(C)=O)c1nc(C(=O)N[C@@H](Cc2ccccc2)C[C@H](C)C(=O)OC)cs1)C(C)C (stereo not given in full) . Its measured TGI is > 14.3 µM

Consider `c1ccc(-c2cc(-c3cc(-c4ccccc4)n(-c4ccccc4)n3)nn2-c2ccccc2)cc1` . Its measured TGI is > 100 µM

Consider `Cc1ccc(Nc2ccc(Nc3ccc(C)cc3)c3c2C(=O)c2c(O)ccc(O)c2C3=O)cc1` . Its measured TGI is > 100 µM

Consider `Clc1nc2c(-c3cccs3)ncnc2n1Cc1ccccc1` . Its measured TGI is 4.36 µM

Consider `O=C(NCc1ccccc1)c1cnc(Cl)cn1` . Its measured TGI is 44.1 µM

Consider `O=C(NC(Nc1ccc(F)c(Cl)c1)(C(F)(F)F)C(F)(F)F)C(C(F)(F)F)C(F)(F)F` . Its measured TGI is 36.9 µM

Consider `O=Nc1c(O)ccc2ccccc12` . Its measured TGI is 7.52 µM

Consider `COC1=C(OC)CCC(/C(C#N)=C/c2ccc(OC)c(OC)c2)=C1` . Its measured TGI is > 100 µM

Consider `Cc1ccc(/C=N/Nc2ncccn2)s1` . Its measured TGI is > 100 µM

Consider C=C(Cl)C(Cl)(CBr)CCC(Cl)C(C)(C)Cl (stereo not given) . Its measured TGI is 3.9 µM

Consider C=C1C(C)C2C(Cc3ccccc3)NC(=O)C23C(OC(C)=O)/C=C/C(C)(O)CC(C)C/C=C/C3C1O (stereo not given) . Its measured TGI is > 100 µM

Consider `O=Cc1coc2ccccc2c1=O` . Its measured TGI is 45.2 µM
